Recorded pIC50 by entry
- system: NRAS Q61R (Homo sapiens, UniProt P01111+P62937, Q61R)
- Sequence (P01111 whole entry Q61R): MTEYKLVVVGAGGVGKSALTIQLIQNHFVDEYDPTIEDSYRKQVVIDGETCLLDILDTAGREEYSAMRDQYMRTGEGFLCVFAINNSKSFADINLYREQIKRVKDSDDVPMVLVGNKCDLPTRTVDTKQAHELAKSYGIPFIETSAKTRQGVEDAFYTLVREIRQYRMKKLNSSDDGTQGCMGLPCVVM
- Sequence (P62937 whole entry): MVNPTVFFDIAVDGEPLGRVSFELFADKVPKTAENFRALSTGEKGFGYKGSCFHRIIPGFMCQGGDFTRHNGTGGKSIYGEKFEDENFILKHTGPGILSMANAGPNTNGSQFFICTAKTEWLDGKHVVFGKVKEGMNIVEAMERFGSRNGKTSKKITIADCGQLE
- assay info: Disruption of BRAF RBD interaction with Ras (FRET / MOA assay, with Cyclophilin A)
- Format: biochemical
- test parameters: NRAS Q61R; read-out: NRAS Q61R FRET data IC50
- Excerpt: Disruption of B-Raf Ras-Binding Domain (BRAF^RBD) Interaction with K-Ras by Compounds of the Invention (Also Called a FRET Assay or an MOA Assay) Note—The following protocol describes a procedure for monitoring disruption of K-Ras G12C (GMP-PNP) binding to BRAF^RBD by a compound of the invention. This protocol may also be executed substituting other Ras proteins or nucleotides. […]
pIC50: −log10 of the molar value.

molecule: CCn1c(-c2cccnc2[C@H](C)OC)c2c3cc(ccc31)-c1csc(n1)C[C@H](NC(=O)[C@H](C(C)C)N(C)C(=O)N1CC3CCN(C)CC31)C(=O)N1CCC[C@H](N1)C(=O)OCC(C)(C)C2 (some centres unmarked)
system: NRAS Q61R (Homo sapiens, UniProt P01111+P62937, Q61R)
pIC50: 5.00 to 6.00
--
molecule: C=CC(=O)N1CCOC2(CCN(C(=O)N(C)[C@H](C(=O)N[C@H]3Cc4cc(CF)cc(c4)-c4ccc5c(c4)c(c(-c4cccnc4[C@H](C)OC)n5CC(F)(F)F)CC(C)(C)COC(=O)C4CCCN(N4)C3=O)C(C)C)CC2)C1 (some centres unmarked)
system: NRAS Q61R (Homo sapiens, UniProt P01111+P62937, Q61R)
pIC50: 6.00 to 7.00
--
molecule: C=CC(=O)N1CCC[C@H]2CN(C(=O)N(C)[C@H](C(=O)N[C@H]3Cc4nc(cs4)-c4ccc5c(c4)c(c(-c4cccnc4[C@H](C)OC)n5CC)CC(C)(C)COC(=O)C4CCCN(N4)C3=O)C(C)C)C[C@H]21 (some centres unmarked)
system: NRAS Q61R (Homo sapiens, UniProt P01111+P62937, Q61R)
pIC50: 6.00 to 7.00
--
molecule: CCn1c(-c2cccnc2[C@H](C)OC)c2c3cc(ccc31)-c1cccc(c1)C[C@H](NC(=O)[C@@H](COC1CN(C(=O)C#CC(C)(C)N(C)C(C)C)C1)C(C)C)C(=O)N1CCCC(N1)C(=O)OCC(C)(C)C2 (some centres unmarked)
system: NRAS Q61R (Homo sapiens, UniProt P01111+P62937, Q61R)
pIC50: < 5.00
--
molecule: CCn1c(-c2cccnc2[C@H](C)OC)c2c3cc(ccc31)-c1csc(n1)C[C@H](NC(=O)[C@H](C(C)C)N(C)C(=O)N1CC([C@@H](C)N(C)C)C1)C(=O)N1CCC[C@H](N1)C(=O)OCC(C)(C)C2 (atropisomer, axis not shown)
system: NRAS Q61R (Homo sapiens, UniProt P01111+P62937, Q61R)
pIC50: 6.00 to 7.00
--
molecule: C=CC(=O)N1CC(OC[C@H](C(=O)N[C@H]2Cc3cc(F)cc(c3)-c3ccc4c(c3)c(c(-c3cccnc3[C@H](C)OC)n4CC)CC(C)(C)COC(=O)[C@@H]3CCCN(N3)C2=O)C(C)C)C1 (atropisomer, axis not shown)
system: NRAS Q61R (Homo sapiens, UniProt P01111+P62937, Q61R)
pIC50: 5.00 to 6.00
--
molecule: CCn1c(-c2cccnc2[C@H](C)OC)c2c3cc(ccc31)-c1csc(n1)C[C@H](NC(=O)[C@H](C(C)C)N(C)C(=O)N1CCC(C(=O)C(F)(F)F)CC1)C(=O)N1CCC[C@H](N1)C(=O)OCC(C)(C)C2
system: NRAS Q61R (Homo sapiens, UniProt P01111+P62937, Q61R)
pIC50: 7.00 to 8.00
--
molecule: CCn1c(-c2cccnc2[C@H](C)OC)c2c3cc(ccc31)-c1csc(n1)C[C@H](NC(=O)[C@H](C(C)C)N(C)C(=O)N1CC[C@@H]1CN(C)C)C(=O)N1CCC[C@H](N1)C(=O)OCC(C)(C)C2
system: NRAS Q61R (Homo sapiens, UniProt P01111+P62937, Q61R)
pIC50: 6.00 to 7.00
